Biological target: AR in stickleback kidney cytosolic extracts (Gasterosteus aculeatus)
Sequence (Q801Z1 1-682): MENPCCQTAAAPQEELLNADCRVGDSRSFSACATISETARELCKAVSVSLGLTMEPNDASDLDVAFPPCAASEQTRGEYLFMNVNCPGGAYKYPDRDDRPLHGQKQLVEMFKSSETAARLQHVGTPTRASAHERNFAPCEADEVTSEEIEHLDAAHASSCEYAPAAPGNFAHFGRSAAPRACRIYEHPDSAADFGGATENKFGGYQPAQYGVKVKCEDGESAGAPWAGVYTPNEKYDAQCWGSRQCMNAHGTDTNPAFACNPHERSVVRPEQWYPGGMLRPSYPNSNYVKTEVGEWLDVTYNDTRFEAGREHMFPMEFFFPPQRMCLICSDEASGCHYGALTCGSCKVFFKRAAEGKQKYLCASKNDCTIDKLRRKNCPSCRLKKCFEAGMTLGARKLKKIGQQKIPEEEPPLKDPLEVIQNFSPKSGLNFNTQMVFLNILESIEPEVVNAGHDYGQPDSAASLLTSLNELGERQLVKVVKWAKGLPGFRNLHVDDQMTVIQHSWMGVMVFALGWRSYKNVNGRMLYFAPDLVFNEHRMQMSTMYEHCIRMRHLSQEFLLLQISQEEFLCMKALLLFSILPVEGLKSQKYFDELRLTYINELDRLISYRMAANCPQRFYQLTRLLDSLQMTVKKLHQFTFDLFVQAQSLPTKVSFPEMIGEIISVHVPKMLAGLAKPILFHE
Assay: Ligand competition assay with 1 nM [3H]-DHT, kidney cytosolic extracts
Type: binding, three-spined stickleback (Gasterosteus aculeatus)
Details: overnight 4°C, read-out: EC50 (competition for [3H]-DHT binding)
property: EC50 (µM)

INSERT INTO measurements (structure_smiles, quantitative_readout) VALUES
  ('C[C@]12CC(=O)[C@H]3[C@@H](CCC4=CC(=O)CC[C@@]43C)[C@@H]1CC[C@@H]2O', 0.0428);

* * *

Property: pEC50; scope: individual compounds
Target: stickleback ARβ2 (reticulocyte lysate) (Gasterosteus aculeatus)
Sequence (Q801Z2 1-735): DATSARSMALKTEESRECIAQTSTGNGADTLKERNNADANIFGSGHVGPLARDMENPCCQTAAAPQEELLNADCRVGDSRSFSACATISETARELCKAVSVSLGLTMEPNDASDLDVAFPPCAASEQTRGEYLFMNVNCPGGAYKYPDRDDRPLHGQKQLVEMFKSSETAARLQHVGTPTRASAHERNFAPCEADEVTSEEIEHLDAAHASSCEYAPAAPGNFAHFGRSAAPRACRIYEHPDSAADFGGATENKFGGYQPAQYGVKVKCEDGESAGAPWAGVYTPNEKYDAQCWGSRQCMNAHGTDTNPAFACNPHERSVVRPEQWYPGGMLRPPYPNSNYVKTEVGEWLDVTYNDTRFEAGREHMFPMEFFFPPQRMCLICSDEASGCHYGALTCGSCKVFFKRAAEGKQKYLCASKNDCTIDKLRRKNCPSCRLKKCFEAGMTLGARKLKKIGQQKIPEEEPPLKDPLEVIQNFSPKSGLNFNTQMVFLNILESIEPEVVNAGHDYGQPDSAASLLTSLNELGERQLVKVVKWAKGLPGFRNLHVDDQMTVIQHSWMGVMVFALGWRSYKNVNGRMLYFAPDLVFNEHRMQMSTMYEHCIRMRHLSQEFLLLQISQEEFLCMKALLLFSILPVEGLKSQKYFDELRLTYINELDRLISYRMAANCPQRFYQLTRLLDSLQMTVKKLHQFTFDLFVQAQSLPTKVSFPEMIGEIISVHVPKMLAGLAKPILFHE
Test: Ligand competition assay with 1 nM [3H]-DHT, ARβ2 containing reticulocyte extract
Details: read-out: EC50 (competition for [3H]-DHT binding)
pEC50: −log10 of the molar value.
property: pEC50

INSERT INTO assay_data (compound, quantitative_readout) VALUES
  ('C[C@]12CC[C@@H]3c4ccc(O)cc4CC[C@H]3[C@@H]1CC[C@@H]2O [E2, 17β-estradiol]', 7.19),
  ('C[C@]12CC(=O)[C@H]3[C@@H](CCC4=CC(=O)CC[C@@]43C)[C@@H]1CC[C@@H]2O', 8.66);
